For each entry below, report its log10(EC50) value.
target: soluble guanylate cyclase (sGC) (Rattus norvegicus, UniProt P20595); construct: endogenous in cells; host or cells: primary rat aortic smooth muscle cells; experiment: Biological cellular assay: sGC activity by phosphorylation of VASP in rat aortic smooth muscle cells; type: cell-based; details: primary rat aortic smooth muscle cells, pre-incubated with 10 μM ODQ, 30 min at 37° C., phospho-VASP (pSer239) fluorescent signal; read-out: Cell assay pEC50 (converted)
Sequence (P20595 whole entry): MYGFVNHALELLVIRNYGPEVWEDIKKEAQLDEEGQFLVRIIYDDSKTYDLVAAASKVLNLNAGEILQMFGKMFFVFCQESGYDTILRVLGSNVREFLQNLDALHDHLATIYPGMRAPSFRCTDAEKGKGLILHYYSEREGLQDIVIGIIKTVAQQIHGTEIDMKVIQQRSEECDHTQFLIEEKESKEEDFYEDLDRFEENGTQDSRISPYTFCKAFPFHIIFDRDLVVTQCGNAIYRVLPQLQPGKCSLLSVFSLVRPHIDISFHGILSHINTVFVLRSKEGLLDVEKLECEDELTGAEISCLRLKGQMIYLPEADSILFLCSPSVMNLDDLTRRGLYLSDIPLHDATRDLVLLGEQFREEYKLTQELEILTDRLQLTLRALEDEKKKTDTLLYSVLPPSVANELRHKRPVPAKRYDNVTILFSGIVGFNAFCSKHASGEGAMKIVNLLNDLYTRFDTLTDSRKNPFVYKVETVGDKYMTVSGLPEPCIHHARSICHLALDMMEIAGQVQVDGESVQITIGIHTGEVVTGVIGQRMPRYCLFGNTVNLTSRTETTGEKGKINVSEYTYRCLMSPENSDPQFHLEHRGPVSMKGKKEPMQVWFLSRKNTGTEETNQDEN
Sequence (P19686 whole entry partner): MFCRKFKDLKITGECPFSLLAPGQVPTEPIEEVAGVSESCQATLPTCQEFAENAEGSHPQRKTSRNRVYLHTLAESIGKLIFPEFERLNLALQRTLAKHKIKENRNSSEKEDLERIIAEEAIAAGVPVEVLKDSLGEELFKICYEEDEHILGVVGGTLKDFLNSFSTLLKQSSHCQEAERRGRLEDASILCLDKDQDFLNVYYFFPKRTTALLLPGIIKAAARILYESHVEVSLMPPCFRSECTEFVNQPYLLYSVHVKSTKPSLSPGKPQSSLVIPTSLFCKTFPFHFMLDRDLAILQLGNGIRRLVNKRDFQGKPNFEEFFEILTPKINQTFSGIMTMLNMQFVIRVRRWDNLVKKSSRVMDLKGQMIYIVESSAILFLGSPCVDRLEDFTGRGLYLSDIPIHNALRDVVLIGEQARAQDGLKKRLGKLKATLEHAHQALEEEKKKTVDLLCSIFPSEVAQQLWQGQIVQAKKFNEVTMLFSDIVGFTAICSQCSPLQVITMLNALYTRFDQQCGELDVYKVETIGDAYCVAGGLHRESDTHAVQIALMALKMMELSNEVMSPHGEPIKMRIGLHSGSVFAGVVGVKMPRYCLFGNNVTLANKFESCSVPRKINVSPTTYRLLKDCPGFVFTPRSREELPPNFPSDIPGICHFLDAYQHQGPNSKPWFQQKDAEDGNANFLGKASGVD
Structures can show the parent of a compound that is named as a salt.
Transform log10 | Measure EC50 | Unit nM

INSERT INTO measurements (compound, experimental_system, readout_number) VALUES
  ('Cc1cc(C2CCN(C(=O)CC#N)CC2)ccc1COc1c(F)cc(F)cc1-c1cccc(N2CCC(C(=O)O)CC2)n1 [Example 63, Sodium salt]', 'soluble guanylate cyclase (sGC) (Rattus norvegicus, UniProt P20595)', -0.40),
  ('Cc1cc(C2CCN(C(=O)[C@H]3CCOC3)CC2)ccc1COc1c(F)cc(F)cc1-c1cccc(N2CCC(C(=O)O)CC2)n1 [Example 72, Sodium salt]', 'soluble guanylate cyclase (sGC) (Rattus norvegicus, UniProt P20595)', -0.37),
  ('COCC(=O)N1CCC(c2ccc(COc3c(F)cc(F)cc3-c3cccc(N4CCC(C(=O)O)CC4)n3)c(C)c2)CC1 [Example 60, Sodium salt]', 'soluble guanylate cyclase (sGC) (Rattus norvegicus, UniProt P20595)', -0.90),
  ('Cc1cc(C2CCN(CCC(F)(F)F)CC2)ccc1COc1c(F)cc(F)cc1-c1cccc(N2CCC(C(=O)O)CC2)n1 [Example 54, Sodium salt]', 'soluble guanylate cyclase (sGC) (Rattus norvegicus, UniProt P20595)', 0.40),
  ('Cc1cc(C2CCN(C3CC3)CC2)ccc1COc1c(F)cc(F)cc1-c1cccc(N2CCC(C(=O)O)CC2)n1 [Example 45, Sodium salt]', 'soluble guanylate cyclase (sGC) (Rattus norvegicus, UniProt P20595)', 0.50),
  ('Cc1cc(C2CCN(C(=O)C3COC3)CC2)ccc1COc1c(F)cc(F)cc1-c1cccc(N2CCC(C(=O)O)CC2)n1', 'soluble guanylate cyclase (sGC) (Rattus norvegicus, UniProt P20595)', -1.00);

List the reported log10(EC50) of each compound below.
1. Cc1cc(C2CCN(C3CCOC3)CC2)ccc1COc1c(F)cc(F)cc1-c1cccc(N2CCC(C(=O)O)CC2)n1 (stereo not shown) [Example 42, Sodium salt]
2. COCCN1CCC(c2ccc(COc3c(F)cc(F)cc3-c3cccc(N4CCC(C(=O)O)CC4)n3)c(C)c2)CC1 [Example 48, Sodium salt]
3. Cc1nc(C2CCN(C3CCOC3)CC2)ccc1COc1c(F)cc(F)cc1-c1cccc(N2CCC(C(=O)O)CC2)n1 (stereo not shown)
4. Cc1cc(C2CCN(C3COC3)CC2)ccc1COc1c(Cl)cccc1-c1cccc(N2CCC(C(=O)O)CC2)n1 [Example 36, Sodium salt]
5. Cc1cc(C2CCN(C3COC3)CC2)ccc1COc1c(F)cc(F)cc1-c1cccc(N2CCC(C(=O)O)CC2)n1 [Example 39, Sodium salt]
6. Cc1cc(C2CCN(CCO)CC2)ccc1COc1c(F)cc(F)cc1-c1cccc(N2CCC(C(=O)O)CC2)n1 [Example 51, Sodium salt]

1: 0.40; 2: 1.20; 3: 2.20; 4: 1.00; 5: -0.10; 6: 1.50

List the reported log10(EC50) of each compound below.
1. Cc1cc(C2CCN(C(=O)CO)CC2)ccc1COc1c(F)cc(F)cc1-c1cccc(N2CCC(C(=O)O)CC2)n1 [Example 57, Sodium salt]
2. Cc1cc(C2CCN(C(=O)CC3CCOC3)CC2)ccc1COc1c(F)cc(F)cc1-c1cccc(N2CCC(C(=O)O)CC2)n1 (stereo not shown) [Example 79, Sodium salt]
3. Cc1cc(C2CCN(C(=O)[C@@H]3CCOC3)CC2)ccc1COc1c(F)cc(F)cc1-c1cccc(N2CCC(C(=O)O)CC2)n1 [Example 73, Sodium salt]

1. -1.10
2. 0.10
3. -1.05

List the reported log10(EC50) of each compound below.
1. COc1cc(C2CCN(CC(F)(F)F)CC2)ccc1COc1c(F)cc(F)cc1-c1cccc(N2CCC(C(=O)O)CC2)n1 [Example 87, Sodium salt]
2. Cc1cc(C2CCN(C(=O)CC3CC3)CC2)ccc1COc1c(F)cc(F)cc1-c1cccc(N2CCC(C(=O)O)CC2)n1 [Example 66, Sodium salt]
3. Cc1nc(C2CCN(C(=O)C3COC3)CC2)ccc1COc1c(F)cc(F)cc1-c1cccc(N2CCC(C(=O)O)CC2)n1

[0.40, -0.50, 1.30]

List the reported log10(EC50) of each compound below.
1. Cc1cc(C2CCN(CC(F)(F)F)CC2)ncc1COc1c(F)cc(F)cc1-c1cccc(N2CCC(C(=O)O)CC2)n1 [Example 9, sodium salt]
2. CCOC(=O)C1CCN(c2cccc(-c3cc(F)cc(F)c3OCc3ccc(C4CCN(CC#N)CC4)cc3C)n2)CC1
3. Cc1cc(C2CCN(C(=O)CC(=O)O)CC2)ccc1COc1c(F)cc(F)cc1-c1cccc(N2CCC(C(=O)O)CC2)n1 [Example 81, di-Sodium salt]

[1.00, -0.20, 1.20]
